B1: TPR t1 (parent)
chain: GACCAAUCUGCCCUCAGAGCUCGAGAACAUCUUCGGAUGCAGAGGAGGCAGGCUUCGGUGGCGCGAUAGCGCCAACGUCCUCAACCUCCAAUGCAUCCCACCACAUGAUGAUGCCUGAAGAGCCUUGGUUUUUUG

# Variants of: B1
# PROTOCOL SUMMARY: polymerase ribozyme fitness, log enrichment relative to wild type (log ratio); higher = more active; in vitro selection for triplet polymerase activity
Measured polymerase ribozyme fitness (log ratio) values are reported for all entries that follow.
Reply: number alone, nothing else.

Examples with answers:
C101G C102G G110C :: -4.36
G10U C53G C70U C86U A119G :: -0.267
G57A C76A A105C :: -4.35
G10A C88G A111C :: -0.763
A6G U112G C114G A119G U131C :: -5.15

In: For the variant shown here, U9G G36U G60C U78A C88A , give the reported polymerase ribozyme fitness (log ratio).
Out: -1.68

In: For the variant shown here, G45A U130A , give the reported polymerase ribozyme fitness (log ratio).
Out: -1.49

In: For the variant shown here, C123A U125G , give the reported polymerase ribozyme fitness (log ratio).
Out: -0.261

In: For the variant shown here, C13A A50U , give the reported polymerase ribozyme fitness (log ratio).
Out: -3.1

In: For the variant shown here, C53A A84U G117U C123G , give the reported polymerase ribozyme fitness (log ratio).
Out: -0.712

In: For the variant shown here, U30C U78G , give the reported polymerase ribozyme fitness (log ratio).
Out: -3.78

In: For the variant shown here, C88A A95U C102A G120A , give the reported polymerase ribozyme fitness (log ratio).
Out: -3.23

In: For the variant shown here, A2G C8G C70G , give the reported polymerase ribozyme fitness (log ratio).
Out: -2.83

In: For the variant shown here, A43G G93C G120A , give the reported polymerase ribozyme fitness (log ratio).
Out: -2.35

In: For the variant shown here, C13G G42A C85U C124G , give the reported polymerase ribozyme fitness (log ratio).
Out: -1.82

In: For the variant shown here, U33A G36U G69U C99G , give the reported polymerase ribozyme fitness (log ratio).
Out: -5.44

In: For the variant shown here, C64A U112G G122A , give the reported polymerase ribozyme fitness (log ratio).
Out: -7.31

In: For the variant shown here, G60U C102U U116A , give the reported polymerase ribozyme fitness (log ratio).
Out: -4.78

In: For the variant shown here, U7A C72G C88A C89G C102A G107A G113A , give the reported polymerase ribozyme fitness (log ratio).
Out: -6.44

In: For the variant shown here, A6U C8A A37G G61U C98A , give the reported polymerase ribozyme fitness (log ratio).
Out: -3.75

In: For the variant shown here, C11U U112C , give the reported polymerase ribozyme fitness (log ratio).
Out: 1.46

In: For the variant shown here, U54G U109G , give the reported polymerase ribozyme fitness (log ratio).
Out: -4.29
